# credit: PubChem BioAssay (NCI)

# Tested on: KM12 colon
# experiment: NCI tumour cell line growth inhibition, 48 h
recorded-metric: TGI (µM)

1. COc1cc(C2CC(C)(O)Oc3cc4c(cc32)OCO4)cc(OC)c1OC (stereo not given): 0.595
2. CN(C)CC1CC/C(=C\c2ccc(O)cc2)C1=O (stereo not given): 16.6

* * *

TGI overview
# System: M14 melanoma
# experiment: NCI tumour cell line growth inhibition, 48 h
recorded-metric: TGI

1. O=C(O)c1ccc2c(c1C(=O)O)C(=O)OC2(c1ccc(O)cc1)c1ccc(O)cc1: > 100 µM
2. Nc1nc2c(c(-c3cccc(Cl)c3)n1)COC/C2=C\c1cccc(Cl)c1: > 100 µM
3. Nc1c(C(=O)Nc2cccc(C(F)(F)F)c2)sc2nc3c(cc12)CCCCC3: 41.5 µM
4. O=C1c2cc3c(cc2-c2c1c1ccc(F)cc1c(=O)n2C[C@H](O)[C@@H](O)[C@H](O)CO)OCO3: 0.599 µM
5. CC(=O)Nc1nc(NC(C)=O)c2[nH]c(CO)nc2n1: > 100 µM
6. C#CCn1c(=O)c2ccccc2n(CC#C)c1=O: > 10 µM

* * *

# Tested on: CCRF-CEM leukemia
# experiment: NCI tumour cell line growth inhibition, 48 h
recorded-metric: TGI (µM)

1. CC1(C)O[C@H]2OC(CO[Si](C)(C)C(C)(C)C)C(N=[N+]=[N-])[C@H]2O1 (stereo not given in full): 38.3
2. Cc1ccc(/C=C/C(=O)CCN(C)C)cc1: 72.4
3. CCOC(=O)c1c(CN2CCCC2)n(-c2ccccc2)c2cc(Br)c(O)cc12: 34.8
4. CC(=O)/C=C/C1=C(C)CCCC1(C)CC(C)C (stereo not given): 36.6

* * *

# System: M14 melanoma
# experiment: NCI tumour cell line growth inhibition, 48 h
TGI overview
recorded-metric: TGI (µM)

1. CCCCCCCCCCCCC(O)c1ccc(C#CCCCCCCCCCO)o1 (stereo unspecified): 31.9
2. O=C(/C(=C/c1ccc([N+](=O)[O-])cc1)SCc1ccccc1)c1ccc(Cl)cc1: 8.59
3. Nn1c(Nc2ccc(S(=O)(=O)Nc3ncccn3)cc2)nnc(/C=C/c2c(O)ccc3ccccc23)c1=O: 78.2
4. O=c1ccc2ccccc2cc1[O-].O=c1ccc2ccccc2cc1[O-].[O]=[U+2]=[O]: 54.5
5. O=C(CCCSc1nc(-c2ccccc2)cc(-c2ccccc2)n1)NO: 5.29

* * *

# Tested on: HT29 colon
# experiment: NCI tumour cell line growth inhibition, 48 h
TGI overview
recorded-metric: TGI (µM)

1. CN(C)CCn1c2c3ccccc3ccc2c2oc(=O)c3ccccc3c21: 16.6
2. CC(C)=CCC(O)C1=CC(=O)c2c(O)ccc(O)c2C1=O (stereo unspecified): 5.17
3. O=C(OCc1ccccc1)N1CCNCCN(C(=O)OCc2ccccc2)CCNCC1: 42
4. NS(=O)(=O)c1nnc(NC(=O)Nc2ccc(Cl)c(Cl)c2)s1: 37.9
5. Nc1nccc(-c2c[nH]c3cc(Br)ccc23)n1: 44.7
6. COc1cccc(C(=O)NC(c2ccc(C)cc2)c2cc(Cl)c3cccnc3c2O)c1 (stereo unspecified): 19.8

* * *

# Tested on: HCT-116 colon
# experiment: NCI tumour cell line growth inhibition, 48 h; in the data active = GI50 below about 0.43 µM; inactive = the rest
Where a SMILES comes first, the peptide text is derived from it. [ ]: non-standard residue; d: D form. The star is where a group is joined. ξ: configuration not given here. X3 = COc1ccc(C(N*)c2ccc(OC)cc2)cc1; NMeF = CN[C@@H](Cc1ccccc1)C(=O)O; NMeD = CN[C@@H](CC(=O)O)C(=O)O; NMeV = CN[C@H](C(=O)O)C(C)C; ξNMeV = CNC(C(=O)O)C(C)C; Boc = CC(C)(C)OC(=O)*; ξNMeA = CNC(C)C(=O)O; ξV = CC(C)C(N)C(=O)O
Possible outcomes: active, inactive

1. CCN(Cc1ccc(F)cc1)c1cc(Cl)c(CO)c(Cl)c1: inactive
2. Cc1ccc(-n2c3nc(=O)[nH]c(=O)c-3cc3cc([N+](=O)[O-])ccc32)cc1: inactive
3. COc1ccc2nc3cc(Cl)ccc3c(NCCNCC(C)O)c2c1 (centres undefined): inactive
4. COc1ccc2nc(NC(=O)CSc3nnc4n3S(=O)(=O)c3ccccc3N4c3ccccc3)sc2c1: inactive
5. Nc1cc(NN=C(c2ccc(O)cc2)c2ccc(O)cc2)c([N+](=O)[O-])cc1[N+](=O)[O-]: inactive
6. COc1ccc(C(NC(=O)C[C@@H](C(=O)N(C)C(C)C(=O)O)N(C)C(=O)[C@@H]2CCCN2C(=O)[C@H](C(C)C)N(C)C(=O)C(C(C)C)N(C)C(=O)[C@H](Cc2ccccc2)N(C)C(=O)C(NC(=O)OC(C)(C)C)C(C)C)c2ccc(OC)cc2)cc1 (some centres undefined) (Boc-[ξV][NMeF][ξNMeV][NMeV]P[NMeD](X3)[ξNMeA]-OH): inactive
7. Cc1csc(-c2nnc(Nc3ccc(Oc4ncccc4-c4ccnc(N)n4)cc3)c3ccccc23)c1: inactive
8. COCCOc1ccc(-c2nc3ccc(-c4nc5ccc(N6CCN(C)CC6)cc5[nH]4)cc3[nH]2)cc1: active
9. CCCCCCCCCCCCC(O)c1ccc(C#CCCCCCCCCCO)o1 (centres undefined): inactive
10. Cc1cc(I)cc(CN(CCCN(C)C)C(C)C)c1O: inactive
11. CCCOc1cc2ccccc2cc1C(=O)Nc1nc(N)c2c(ccc3nccc32)[nH]1: active
12. CCN(C(=O)N1CCN(c2cc3c(cc2F)c(=O)c(C(=O)O)cn3C2CC2)CC1)c1nc(-c2ccc(Cl)cc2)cs1: inactive
13. Cn1ccc2c3c(Oc4ccc(NC(N)=O)cc4)ccnc3ccc21: inactive
14. CCn1c(-c2nonc2N)nc2c(C#CC(C)(C)O)nc(OC[C@@H](N)c3ccccc3)cc21: inactive

* * *

# Test system: SK-MEL-5 melanoma
# experiment: NCI tumour cell line growth inhibition, 48 h
TGI overview
recorded-metric: TGI

1) COc1ncc(/C=C2\OC(=O)c3ccccc32)c(OC)n1: 58.7 µM
2) COc1ccc2cc1Oc1ccc(cc1)C[C@H]1c3cc(c(OC)cc3CCN1C)Oc1c(O)c(OC)cc3c1[C@H](C2)N(C)CC3: 29.4 µM
3) CC(C)(C)c1cc2ccc(C(N)=O)cc2c(=O)[nH]1: > 100 µM
4) C#CCn1c(=O)c2ccccc2n(CC#C)c1=O: > 10 µM
5) O=CNc1ccc2c(c1)C(=O)c1ccccc1-2: > 100 µM
6) O=C(OCc1ccccc1)N1CCNCCN(C(=O)OCc2ccccc2)CCNCC1: 26.7 µM
7) Cc1cc(Nc2ccc(S(=O)(=O)O)c3cc(S(=O)(=O)O)cc(S(=O)(=O)O)c23)c2ccccc2n1: > 100 µM
8) CC1=C2C(=C[C@@](C)(CO)[C@@H]2O)C(=O)[C@](C)(O)C12CC2: 0.0183 µM
9) COc1ccc(/C=N/NC(=O)c2cccc3cc[nH]c23)cc1O: > 80.7 µM
10) N#CC(Cc1ccccc1)N(CCC1=CCCCC1)C(c1ccccc1)c1ccccc1 (stereo unspecified): > 100 µM
11) Cc1ccc(Oc2ccc(C)cc2N)cc1: > 100 µM

* * *

# System: LOX IMVI melanoma
# experiment: NCI tumour cell line growth inhibition, 48 h
recorded-metric: log10(TGI) (log10 of the value in µM)

1. O=C1C=CC(=O)c2nc3c(cc21)CCC3: 1.48
2. N#CC(NCc1cccc(CNC(C#N)c2ccccc2)c1)c1ccccc1 (stereo not given): 1.46
3. C[C@]12CCC3C4=C(CCC3C1CCC2=O)C(=O)[C@H]1O[C@H]1C4=O (stereo not given in full): 0.71
4. CCN(Cc1ccc(F)cc1)c1cc(Cl)c(CO)c(Cl)c1: 1.47
5. CCN(C(=O)N1CCN(c2cc3c(cc2F)c(=O)c(C(=O)O)cn3C2CC2)CC1)c1nc(-c2ccc(Cl)cc2)cs1: 0.21

* * *

# Test system: PC-3 prostate
# experiment: NCI tumour cell line growth inhibition, 48 h
recorded-metric: TGI (µM)

1) C[C@]12CCC3C4=C(CCC3C1CCC2=O)C(=O)[C@H]1O[C@H]1C4=O (stereo not given in full): 11.5
2) Nc1ccccc1SC(CC(=O)c1ccccc1)c1cccc([N+](=O)[O-])c1 (stereo not given): 25.5

* * *

# Tested on: MDA-N
# experiment: NCI tumour cell line growth inhibition, 48 h
TGI overview
recorded-metric: TGI

1) O=[N+]([O-])c1ccc(Cl)cc1N/N=C/c1ccnc2ccccc12: > 100 µM
2) CC(C)c1cc2c(cc1S(=O)(=O)O)[C@@]1(C)CCC[C@@](C)(C(=O)O)C1CC2 (stereo partly drawn): > 100 µM
3) O=S(=O)(c1ccccc1)c1cccc2c1NCCC2: > 100 µM

* * *

# System: HL-60(TB) leukemia
# experiment: NCI tumour cell line growth inhibition, 48 h
recorded-metric: GI50

1. CN1CC[C@@H](NC(=O)Nc2ccc(C#N)cc2)C[C@@H]1c1nc2ccccc2[nH]1: > 100000 nM
2. CCN(C(=O)N1CCN(c2cc3c(cc2F)c(=O)c(C(=O)O)cn3C2CC2)CC1)c1nc(-c2ccc(Cl)cc2)cs1: 669 nM
3. Nc1ccc(C2=NNC(=O)Cc3cc4c(cc32)OCCO4)cc1Cl: 1720 nM
4. O=C(/C(=C/c1ccc([N+](=O)[O-])cc1)SCc1ccccc1)c1ccc(Cl)cc1: 3210 nM
5. N#Cc1c[nH]n2c(N=Nc3ccc(Cl)cc3)c(O)nc12: > 100000 nM
